experimental.system: H-2D^b (Mus musculus)
Sequence (P01899 25-362): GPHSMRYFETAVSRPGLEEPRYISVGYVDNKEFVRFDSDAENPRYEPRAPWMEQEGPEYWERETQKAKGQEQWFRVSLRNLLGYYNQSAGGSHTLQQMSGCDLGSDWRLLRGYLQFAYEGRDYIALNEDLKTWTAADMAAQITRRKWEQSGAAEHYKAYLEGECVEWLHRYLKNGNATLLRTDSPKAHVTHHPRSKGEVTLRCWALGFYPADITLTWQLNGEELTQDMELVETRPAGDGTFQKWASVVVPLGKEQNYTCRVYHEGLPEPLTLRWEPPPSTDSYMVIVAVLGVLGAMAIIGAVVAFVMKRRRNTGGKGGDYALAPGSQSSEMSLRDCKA
Sequence (P01887 21-119 partner): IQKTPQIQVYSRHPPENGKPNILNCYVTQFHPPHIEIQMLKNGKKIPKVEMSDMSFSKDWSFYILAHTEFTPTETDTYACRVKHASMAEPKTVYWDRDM
method.notes: MHC class I stabilization assay on RMA-S cells, H-2D^b surface expression
Assay type: cell-based
condition: synthetic long peptides, peptide concentration 10 μM; RMA-S cells 26 °C 4 h then 37 °C 1 h; flow cytometry; FI = MFI peptide / MFI DMSO
measurement.name: MHC I Stabilization Assay, fluorescence index class, H-2D^b

biopolymer_sequence="VPAAYAAQGYKVLVL [NS3_214-228]" experimental_result="++ (0.5–1.5 ++)"
biopolymer_sequence="LSQTKQSGENFPYLVAY [NS3_547-563]" experimental_result="++ (0.5–1.5 ++)"
biopolymer_sequence="ALGINAVAYYRGLDVSVI [NS3_383-400]" experimental_result="++ (0.5–1.5 ++)"

From: paper PMC4494349
